- System: DNA aptamer or structured DNA GGGACGACGGGGGGAGTTTGTTTGTGTGGGAGGGTCCAGTCGTCCC
- experimental_conditions: 10 mM Tris-HCl, pH 7.4
assay_endpoint: pKd
Numbers only, as −log10 of the molar value.

Kindly indicate its recorded pKd. Item: COc1ccc2c3c1O[C@H]1C(=O)CC[C@@]4(O)[C@@H](C2)N(C)CC[C@]314
5.76

====

- Tested on: DNA aptamer or structured DNA TTCAAATCTTGCGAATTGGACTCAGAATGTGGGTTTGCCAGTCTAGATTTGAA
- experimental_conditions: 10 mM Tris-HCl, pH 7.4
assay_endpoint: Kd (nM)
One number for each entry, in nM.

Kindly indicate its recorded Kd. Item: CC(C)[C@H](NC(=O)c1nn(Cc2ccc(F)cc2)c2ccccc12)C(N)=O
998
